The values you see were collected from patent US20110294843A1.

assay: Pharmacokinetics of M6G at single and multiple intravenous doses in healthy volunteers; format: in vivo, human; conditions: both sexes, human, plasma, iv, 45 mg/70 kg, single 5 min iv infusion 45 mg; Mean; read-out: Cmax
observation type: Cmax (ng/mL)

{"compound": "CN1CC[C@]23c4c5ccc(O)c4O[C@H]2[C@@H](OC2OC(C(=O)O)C(O)C(O)C2O)C=CC3[C@H]1C5 (stereo partly shown)", "unit info": "ng/mL", "observed result": 5860}

====

Assay: Pharmacokinetics of M6G at single and multiple intravenous doses in healthy volunteers
Format: in vivo, human
Settings: both sexes, human, plasma, iv, 30 mg/70 kg, single 5 min iv infusion 30 mg; Geometric Mean; read-out: Cmax
Method: Healthy male and female subjects were divided into two groups (A and B) with 12 in each. Group A received three single intravenous infusions of M6G over 5 mins at levels of 15, 30 and 45 mg/70 kg in random order, having taken 50 mg of naloxone orally 24 hrs beforehand. […] Vital signs (supine blood pressure, pulse, respiratory rate and oral temperature), respiration rate, pulse oximetry and adverse events were monitored during the study. Plasma levels of M6G were measured using HPLC/ms/ms.

{"molecule": "CN1CC[C@]23c4c5ccc(O)c4O[C@H]2[C@@H](OC2OC(C(=O)O)C(O)C(O)C2O)C=CC3[C@H]1C5 (stereo partly shown) [M6G]", "Cmax, ng/mL": 3870}
